- System: Amaranthus retroflexus
- test method notes: Post-emergence herbicidal action (Experimental Part 1, A)
- Type: in vivo
- condition description: application rate 1280 g/ha, about 3 weeks after treatment, 100% = plants have died, 0% = like control plants
measure name: herbicidal activity on Amaranthus retroflexus (visual rating vs untreated controls) (%)
Use % as the unit, but write only the number.

CC1=CC(=O)N(c2cc(C(C)(C)C)on2)C1O (stereo not shown) [I.1-162]: 100

GET /value?item= CC(=O)OC1C(C)=CC(=O)N1c1cc(C(C)(C)C)on1 (stereo not shown) [I.3-162] &field=herbicidal activity on Amaranthus retroflexus (visual rating vs untreated controls) returns 100

GET /value?item= CCOC(=O)OC1C=C(C)C(=O)N1c1cc(C(F)(F)F)c(Cl)cn1 (stereo not shown) [I.12-451] &field=herbicidal activity on Amaranthus retroflexus (visual rating vs untreated controls) returns 100

GET /value?item= CCC(=O)OC1C(C)=CC(=O)N1c1cc(C(C)(C)C)on1 (stereo not shown) [I.5-162] &field=herbicidal activity on Amaranthus retroflexus (visual rating vs untreated controls) returns 100

====

- System: Lolium rigidum
- test method notes: Pre-emergence herbicidal action (Experimental Part 1, B)
- Format: in vivo
- condition description: application rate 1280 g/ha, scored visually after about 3 weeks
Readings of Lolium rigidum, herbicidal activity for the listed compounds
Use % as the unit, but write only the number.

GET /value?item= CC(=O)OC1C(C)=CC(=O)N1c1cc(C(C)(C)C)on1 (stereo not shown) [I.3-162] &field=Lolium rigidum, herbicidal activity returns 90

GET /value?item= CCC(=O)OC1C(C)=CC(=O)N1c1cc(C(C)(C)C)on1 (stereo not shown) [I.5-162] &field=Lolium rigidum, herbicidal activity returns 90

GET /value?item= CC1=CC(=O)N(c2cc(C(C)(C)C)on2)C1O (stereo not shown) [I.1-162] &field=Lolium rigidum, herbicidal activity returns 100

GET /value?item= CCOC(=O)OC1C(C)=CC(=O)N1c1cc(C(C)(C)C)on1 (stereo not shown) [I.11-162] &field=Lolium rigidum, herbicidal activity returns 90

====

- Tested on: Matricaria inodora
- test method notes: Herbicidal pre-emergence action (Experimental Part 2, D)
- Type: in vivo
- condition description: pre-emergence (Part 2), application rate 320 g/ha, scored visually after about 3 weeks
measure name: Matricaria inodora, herbicidal activity (%)
Use % as the unit, but write only the number.

Here are 3 compounds together with their reported answers.
CCC(=O)OC1C=C(C)C(=O)N1c1cc(C(C)(C)C)no1 (stereo not shown): 100
CC1=CC(O)N(c2cc(C(C)(C)C)no2)C1=O (stereo not shown): 100
CC1=CC(O)N(c2cc(C(C)(C)C)on2)C1=O (stereo not shown): 100

CC1=CC(=O)N(c2cc(C(C)(C)C)no2)C1O (stereo not shown) tested on Matricaria inodora gave Matricaria inodora, herbicidal activity: 100

CCC(=O)OC1C(C)=CC(=O)N1c1cc(C(C)(C)C)no1 (stereo not shown) tested on Matricaria inodora gave Matricaria inodora, herbicidal activity: 100

CC1=CC(=O)N(c2onc(C(C)(C)C)c2C)C1O (stereo not shown) tested on Matricaria inodora gave Matricaria inodora, herbicidal activity: 100

CC1=CC(O)N(c2noc(C(C)(C)C)c2C)C1=O (stereo not shown) tested on Matricaria inodora gave Matricaria inodora, herbicidal activity: 100
